The reported numbers originate from ChEMBL document CHEMBL1201862.

test system: MDA-MB-231; assay: NCI tumour cell line growth inhibition, 48 h
Activity calls are given as the source filed them. No stated cut-off is given here; in the data, active = GI50 up to about 1.1 µM and inactive = higher.
Outcome codes: YES (active), NO (inactive)

>>> df
                                   compound  experimental_target  class
0             O=C(O)c1cccc(/C=C/c2ccccc2)c1           MDA-MB-231     NO
1        N#Cc1c(OCCF)c2ccccc2n2c1nc1ccccc12           MDA-MB-231     NO
2             Cn1nnnc1SC(F)(F)c1nc2ccccc2o1           MDA-MB-231     NO
3  O=C(O)C(Cc1ccccc1)N1C(=O)c2ccccc2C1=O (stereo not given)           MDA-MB-231     NO
4  CC[C@@]12CCCN3CC[C@]4(c5cccc(OC)c5N(C(C)=O)[C@@H]4CC1)[C@H]32 [ASPIDOSPERMINE]           MDA-MB-231     NO
5  O=C(CNc1nccs1)Nn1cnc2ccc(S(=O)(=O)Nc3nccs3)cc2c1=O           MDA-MB-231     NO
6  COc1cc([C@H]2c3[nH]c4ccccc4c3C[C@H]3COC(=O)N32)cc(OC)c1O           MDA-MB-231    YES
7  CCC(C)N1CN(c2ccccc2)C2(CCN(CCCC3(c4ccc(F)cc4)OCCO3)CC2)C1=O (stereo not given)           MDA-MB-231     NO
8  CC(=O)C1C(=O)C(=O)N(c2cccc(C)c2C)C1=O (stereo not given)           MDA-MB-231     NO
9  COc1ccc(OC)c(/C=N/N=C2\C(=O)Nc3c(Cl)cc(Cl)cc32)c1           MDA-MB-231     NO

----------
tested on: OVCAR-3; experiment: NCI tumour cell line growth inhibition, 48 h
Activity calls are given as the source filed them. Rule as the data show it: active = GI50 up to about 1.1 µM and inactive = higher.
Reported GI50 values for the following molecules.

Molecule	Experimental target	GI50
CCCCCCCCC[C@@H]1CC(=O)OCC2OC(O[C@H](CCCCCCCCC)CC(=O)OCC3OC(O[C@H](CCCCCCCCC)CC(=O)OCC4OC(O1)C(O)C(O)C4O)C(O)C(O)C3O)C(O)C(O)C2O (stereo not given in full)	OVCAR-3	18 µM (inactive)
O=C(O)c1cccc(/C=C/c2ccccc2)c1	OVCAR-3	> 100 µM (inactive)
CCCCCCCC/C=C(\Br)C(O)C(Br)Br (stereo not given)	OVCAR-3	17.4 µM (inactive)
CCCCCCCCCCCCCCCC[N+](C)(C)CCl	OVCAR-3	3.03 µM (inactive)
O=S(=O)(O)n1ccnc1	OVCAR-3	> 100 µM (inactive)
CC(C)=CCC/C(C)=C/CCC1(C)C2COC(=O)C21 (stereo not given)	OVCAR-3	37 µM (inactive)
CCCC[C@H]1CCN2C[C@@H](O)[C@@H](O)[C@H]2[C@@H]1O	OVCAR-3	> 100 µM (inactive)
C[n+]1cc(C(O)c2ccc3c(c2)OCO3)c2ccccc2c1 (stereo not given)	OVCAR-3	28.8 µM (inactive)
O=C(OC[C@H]1C[C@H]2C(=O)CCC[C@H]2O1)c1ccccc1	OVCAR-3	> 100 µM (inactive)
O=C1CC(NC(=O)C(F)(F)F)c2c1csc2Br (stereo not given)	OVCAR-3	2.45 µM (inactive)
